system: 786-O; experiment: Euclidean distance of Cell Painting phenotypic profile (signed KS, 77 features) to DMSO centroid (dimensionless distance); higher = stronger phenotypic change vs DMSO (phenoactivity); settings: 48 h; 5 or 10 uM (library dependent)
Structures can show the parent of a compound that is named as a salt.
parameter measured: Euclidean distance

compound	tested target	endpoint result
CC[C@H](C)[C@@H]([C@@H](CC(=O)N1CCC[C@H]1[C@H](OC)[C@@H](C)C(=O)N[C@H](C)[C@@H](O)c1ccccc1)OC)N(C)C(=O)[C@@H](NC(=O)[C@@H](NC)C(C)C)C(C)C	786-O	3.13
COc1ccc(OC)c(C(O)C(C)N)c1 (centres undefined) [Methoxamine HCl]	786-O	0.732
Cc1ccccc1-n1c(Cn2ncc3c(N)ncnc32)nc2cccc(C)c2c1=O	786-O	0.868
COCC1(CO)C(=O)C2CCN1CC2 (centres undefined)	786-O	3.17
Cn1c(COP(=O)(NCCBr)NCCBr)cnc1[N+](=O)[O-] [Evofosfamide (TH-302)]	786-O	1.45
CC(C)OC(=O)[C@H](C)N[P@](=O)(CO[C@H](C)Cn1cnc2c(N)ncnc21)Oc1ccccc1 [Tenofovir Alafenamide (GS-7340)]	786-O	1.71
NC(=O)CN1CCCC1=O	786-O	1.42
COC(=O)C1=CCCN(C)C1 [Arecoline HBr]	786-O	0.921
COc1ccc(C=O)cc1	786-O	1.24
CCOc1ccccc1-n1c(C(C)N2CCN(C(=O)COc3ccc(Cl)cc3)CC2)nc2ccccc2c1=O (centres undefined)	786-O	3.85
CCOC(=O)Nc1ccc(NCc2ccc(F)cc2)cc1N [Retigabine 2HCl]	786-O	0.771
CN1CCC(C(=O)c2cccc(NC(=O)c3c(F)cc(F)cc3F)n2)CC1 [Lasmiditan succinate]	786-O	1.46
C[C@@H]1[C@H](O)[C@@H](C)/C=C/C=C/CC/C=C/C=C/C=C/C=C/[C@H](O[C@H]2O[C@@H](C)[C@H](O)[C@@H](N)[C@H]2O)C[C@@H]2O[C@](O)(C[C@@H](O)[C@H](O)CC[C@@H](O)C[C@@H](O)C[C@@H](O)CC(=O)O[C@H]1C)C[C@H](O)[C@H]2C(=O)O	786-O	1.05
CCN1CCN(C(=O)Cc2ccc(Nc3ncc(F)c(Nc4ccc(C(=O)Nc5ccccc5Cl)cc4)n3)cc2)CC1	786-O	5.7
NCCc1c[nH]c2ccc(O)cc12 [Serotonin HCl]	786-O	1.02
O=C/C=C/c1ccccc1	786-O	1
Cc1cc(C2=NOC(c3cc(Cl)cc(Cl)c3)(C(F)(F)F)C2)ccc1C(=O)NCC(=O)NCC(F)(F)F (centres undefined)	786-O	1.38
C=CC1CN2CCC1CC2C(O)c1ccnc2ccccc12 (centres undefined)	786-O	1.34
O=c1[nH]c2ccccc2n1C1CCN(CCCC(c2ccc(F)cc2)c2ccc(F)cc2)CC1 [Pimozide]	786-O	1.83
CCC(=O)CCCCC[C@@H]1NC(=O)[C@H]2CCCCN2C(=O)[C@H]([C@@H](C)CC)NC(=O)[C@H](Cc2cn(OC)c3ccccc23)NC1=O	786-O	3.74
C[C@@H]1CC[C@@]2(OC1)O[C@H]1C[C@H]3[C@@H]4CC=C5C[C@@H](O[C@@H]6O[C@H](CO)[C@@H](O[C@@H]7O[C@@H](C)[C@H](O)[C@@H](O)[C@H]7O)[C@H](O)[C@H]6O[C@@H]6O[C@@H](C)[C@H](O)[C@@H](O)[C@H]6O)CC[C@]5(C)[C@H]4CC[C@]3(C)[C@H]1[C@@H]2C	786-O	1.76
C=CCN1C[C@H](C(=O)N(CCCN(C)C)C(=O)NCC)C[C@@H]2c3cccc4[nH]cc(c34)C[C@H]21	786-O	1.45
Cc1ccc(/N=C/N(C)/C=N/c2ccc(C)cc2C)c(C)c1	786-O	0.966
CCCN1CCO[C@@H]2c3cc(O)ccc3OC[C@H]21	786-O	0.455
O=[N+]([O-])O[C@@H]1CO[C@H]2[C@@H]1OC[C@@H]2O [Isosorbide Mononitrate]	786-O	1.15
CCN(CC)C(=O)c1ccc(C2=CC3(CCNCC3)Oc3cccc(O)c32)cc1	786-O	0.588
CC(C)(C)NCC(O)c1ccccc1Cl (centres undefined) [Tulobuterol hydrochloride]	786-O	0.975
COC(=O)C1=CCCN(C)C1 [Arecoline]	786-O	0.942
O=C(CBr)N1CC([N+](=O)[O-])([N+](=O)[O-])C1	786-O	0.949

* * *

system: FB; assay: Euclidean distance of Cell Painting phenotypic profile (signed KS, 77 features) to DMSO centroid (dimensionless distance); higher = stronger phenotypic change vs DMSO (phenoactivity); conditions: 48 h; 5 or 10 uM (library dependent)
Where a name gives a salt, the structure may show the parent alone.
Threshold rule: Euclidean distance greater than or equal to 1 is rule met; below that, rule not met.

compound	class assignment
C=CN1CCCC1=O.II [Povidone iodine]	rule met
CCC(COC(=O)c1cc(OC)c(OC)c(OC)c1)(c1ccccc1)N(C)C (stereo not drawn) [Trimebutine]	rule not met
CN1c2ccccc2C(NCCCCCCC(=O)O)c2ccc(Cl)cc2S1(=O)=O (stereo not drawn) [Tianeptine sodium]	rule met
CC[C@H](C)[C@@H]([C@@H](CC(=O)N1CCC[C@H]1[C@H](OC)[C@@H](C)C(=O)N[C@H](C)[C@@H](O)c1ccccc1)OC)N(C)C(=O)[C@@H](NC(=O)[C@@H](NC)C(C)C)C(C)C [Monomethyl auristatin E (MMAE)]	rule met
CNC(C)Cc1ccccc1OC (stereo not drawn) [Methoxyphenamine Hydrochloride]	rule met
c1ccc2c(c1)Sc1ccccc1N2CC1CN2CCC1CC2 (stereo not drawn) [Mequitazine]	rule met
CC(C)NCC(O)c1ccccc1Cl (stereo not drawn) [Clorprenaline HCl]	rule met
CC(=O)Nc1ccc(OC[C@](C)(O)C(=O)Nc2ccc([N+](=O)[O-])c(C(F)(F)F)c2)cc1 [Andarine]	rule not met
CC1(C)S[C@@H]2[C@H](N)C(=O)N2[C@H]1C(=O)O [6-Aminopenicillanic acid]	rule not met
C[C@]12CC[C@H](O)C[C@@H]1CC[C@@H]1[C@@H]2CC[C@]2(C)C(=O)CC[C@@H]12 [Epiandrosterone]	rule met
O=C/C=C/c1ccccc1 [Cinnamaldehyde]	rule not met
NCCCNCCSP(=O)(O)O [Amifostine]	rule met
N#Cc1nn(-c2c(Cl)cc(C(F)(F)F)cc2Cl)c(N)c1[S+]([O-])C(F)(F)F (stereo not drawn) [Fipronil]	rule met
C=C(C)[C@@H]1[C@H]2OC(=O)[C@@H]1[C@]1(O)C[C@H]3O[C@]34C(=O)O[C@H]2[C@]14C [Picrotoxinin]	rule not met
C[C@]12CC[C@H](O)CC1=CC[C@@H]1[C@@H]2CC[C@]2(C)C(=O)CC[C@@H]12 [Dehydroepiandrosterone (DHEA)]	rule met
C[C@]12CC[C@@H](O)C[C@@H]1CC[C@@H]1[C@@H]2CC[C@]2(C)C(=O)CC[C@@H]12 [Androsterone]	rule met
N.N.[Cl][Pt][Cl] [Cisplatin]	rule not met
O=C(C[S+]([O-])C(c1ccccc1)c1ccccc1)NO (stereo not drawn) [Adrafinil]	rule not met
Cc1sc2c(c1C)C(c1ccc(Cl)cc1)=N[C@@H](CC(=O)OC(C)(C)C)c1nnc(C)n1-2	rule met
Cn1c(COP(=O)(NCCBr)NCCBr)cnc1[N+](=O)[O-] [Evofosfamide (TH-302)]	rule met
C[CH2][Hg][S]c1ccccc1C(=O)[O-].[Na+] [Thimerosal]	rule met

* * *

Euclidean distance listing for selected compounds.
test system: DU145; experiment: Euclidean distance of Cell Painting phenotypic profile (signed KS, 77 features) to DMSO centroid (dimensionless distance); higher = stronger phenotypic change vs DMSO (phenoactivity); settings: 48 h; 5 or 10 uM (library dependent)
Counter-ions that a name gives are not always drawn.

compound	Euclidean distance
C=C(C)[C@@H]1[C@H]2OC(=O)[C@@H]1[C@]1(O)C[C@H]3O[C@]34C(=O)O[C@H]2[C@]14C	0.846
CCCCCCC(=O)O[C@H]1CC[C@H]2[C@@H]3CCC4=CC(=O)CC[C@]4(C)[C@H]3CC[C@]12C [Testosterone Enanthate]	0.828
COc1ccc(CN2CCNCC2)c(OC)c1OC [Trimetazidine dihydrochloride]	0.805
CN1CCC(C(=O)c2cccc(NC(=O)c3c(F)cc(F)cc3F)n2)CC1 [Lasmiditan succinate]	1.83
CCOc1ccccc1-n1c(C(C)N2CCN(C(=O)COc3ccc(Cl)cc3)CC2)nc2ccccc2c1=O (configuration not stated)	1.34
Cc1ccc2c(c1)[C@]13CCCC[C@@H]1[C@H](C2)N(C)CC3 [Dimemorfan phosphate]	1.36
COc1ccc(C(=O)O)cc1OC	1.2
Oc1ccc(Cl)cc1Cc1cc(Cl)ccc1O	1.3
Oc1cc(Cl)ccc1Oc1ccc(Cl)cc1Cl	0.877
CN[C@@H]1[C@@H](O)[C@@H](O[C@@H]2[C@@H](O)[C@H](O[C@H]3O[C@H](CN)CC[C@H]3N)[C@@H](N)C[C@H]2N)OC[C@]1(C)O.CN[C@@H]1[C@@H](O)[C@@H](O[C@@H]2[C@@H](O)[C@H](O[C@H]3O[C@H]([C@@H](C)N)CC[C@H]3N)[C@@H](N)C[C@H]2N)OC[C@]1(C)O.CN[C@@H]1[C@@H](O)[C@@H](O[C@@H]2[C@@H](O)[C@H](O[C@H]3O[C@H]([C@@H](C)NC)CC[C@H]3N)[C@@H](N)C[C@H]2N)OC[C@]1(C)O [Gentamicin Sulfate]	1.22
Nc1ccncc1	0.961
CC[N+](C)(CC)CCOC(=O)C(O)(c1ccccc1)c1ccccc1 [Methylbenactyzine Bromide]	0.575
CCC(=O)O[C@H]1CC[C@H]2[C@@H]3CC[C@H]4CC(=O)[C@H](C)C[C@]4(C)[C@H]3CC[C@]12C [Drostanolone Propionate]	0.706
O=C(Oc1ccc([N+](=O)[O-])cc1)N1CCC(C(O)(c2ccc3c(c2)OCO3)c2ccc3c(c2)OCO3)CC1	1.4
CC[C@@]1(O)C[C@H](O[C@H]2C[C@H](N(C)C)[C@H](O)[C@H](C)O2)c2c(cc3c(c2O)C(=O)c2c(O)cccc2C3=O)[C@H]1C(=O)OC	3.54
CCNC1(c2cccs2)CCCCC1=O (configuration not stated) [Tiletamine Hydrochloride]	1.26
CC(C)(C)c1cc(C=C(C#N)C#N)cc(Br)c1O	0.863
CN(C)C(=O)Oc1cc(OC(=O)N(C)C)cc(C(O)CNC(C)(C)C)c1 (configuration not stated) [Bambuterol HCl]	1.13
CO[C@H]1CC[C@@H](O[C@H]2C[C@H]([C@]3(C)CC[C@]4(C[C@H](O)[C@@H](C)[C@@H]([C@@H](C)/C=C(\C)C(=O)[C@H](C)C[C@H](C)C(=O)O)O4)O3)O[C@]3(O[C@@H]([C@H]4O[C@@](O)(CO)[C@H](C)C[C@@H]4C)C[C@@H]3C)[C@@H]2C)O[C@@H]1C	2.28
CN(C)Cc1c[nH]c2ccccc12	1.29
O=c1ccc2cc(O[C@@H]3O[C@H](CO)[C@@H](O)[C@H](O)[C@H]3O)c(O)cc2o1	0.922
CC[C@@H](CO)NC(=O)[C@@H]1C=C2c3cccc4c3c(cn4C)C[C@H]2N(C)C1 [Methysergide Maleate]	0.772
